# procedure.details: Intrinsic clearance in rat hepatic microsomes
# Type: in vitro ADME
# conditions.used: predicted hepatic clearance from in vitro intrinsic clearance
metric: predicted CLhep, rat (mL/min/kg)
Report the figure in mL/min/kg without appending any unit label.

A selection of reference data follows.
>>> recorded_value("Cc1ccc(OC2CCN(c3ncnc4ccc(F)cc34)CC2)cn1 [17b]")
50
>>> recorded_value("Cc1sc2ncnc(N3CCC(C(=O)N4CC[C@H](F)C4)CC3)c2c1C [11b]")
68
>>> recorded_value("Cc1ccc(OC2CCN(c3ncnc4sc(C)c(C)c34)CC2)cn1 [14b]")
68

Proceed to the following item.
Ask: Please list predicted CLhep, rat recorded for the molecule Cc1sc2ncnc(N3CCC(C(=O)N4CCCC4)CC3)c2c1C [11a]
Result: 67
